tested_target: Atrial natriuretic peptide receptor 2 (Homo sapiens) (UniProt P20594)
Sequence (P20594 whole entry, looked up): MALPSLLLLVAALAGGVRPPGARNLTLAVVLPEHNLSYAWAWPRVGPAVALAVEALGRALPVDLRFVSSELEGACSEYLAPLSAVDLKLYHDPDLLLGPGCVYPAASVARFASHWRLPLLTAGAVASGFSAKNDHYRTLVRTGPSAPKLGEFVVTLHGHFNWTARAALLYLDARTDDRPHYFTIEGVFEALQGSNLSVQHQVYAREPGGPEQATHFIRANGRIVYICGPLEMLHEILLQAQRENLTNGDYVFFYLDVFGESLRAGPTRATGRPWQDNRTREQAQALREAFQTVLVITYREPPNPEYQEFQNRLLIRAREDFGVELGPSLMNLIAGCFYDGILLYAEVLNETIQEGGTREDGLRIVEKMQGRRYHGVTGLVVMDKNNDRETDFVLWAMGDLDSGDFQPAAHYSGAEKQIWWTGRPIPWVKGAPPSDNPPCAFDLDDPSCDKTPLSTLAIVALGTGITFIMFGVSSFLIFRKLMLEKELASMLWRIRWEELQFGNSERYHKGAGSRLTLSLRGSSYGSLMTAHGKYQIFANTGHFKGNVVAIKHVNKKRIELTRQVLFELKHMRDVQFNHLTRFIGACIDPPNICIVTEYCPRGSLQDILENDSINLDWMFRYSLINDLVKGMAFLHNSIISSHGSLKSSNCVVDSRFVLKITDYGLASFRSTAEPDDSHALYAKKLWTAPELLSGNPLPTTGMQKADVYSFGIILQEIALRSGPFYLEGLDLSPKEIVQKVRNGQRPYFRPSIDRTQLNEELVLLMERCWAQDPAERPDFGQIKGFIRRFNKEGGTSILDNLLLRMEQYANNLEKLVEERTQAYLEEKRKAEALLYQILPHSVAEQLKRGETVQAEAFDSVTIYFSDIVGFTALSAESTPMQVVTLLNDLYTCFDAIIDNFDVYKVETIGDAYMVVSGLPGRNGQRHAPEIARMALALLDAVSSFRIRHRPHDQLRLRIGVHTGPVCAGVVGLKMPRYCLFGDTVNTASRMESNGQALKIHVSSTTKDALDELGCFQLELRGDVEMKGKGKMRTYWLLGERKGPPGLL
assay_overview: GC-B stimulated cGMP production enhancers – HEK293 GC-B cells, cGMP TR-FRET, EC30 CNP, primary screen (AID 1920062)
conditions_used: at 10 µM, hits give high values, 0% at EC30 CNP, 100% saturating CNP
About 400 (0.11%) of roughly 370,000 compounds were called active. The sample holds actives, similar compounds and a random draw of the others, so the mix is not that of the screen.
Reported activation by item:
metric_name: activation (%)

O=C1CC(=O)Nc2cc(S(=O)(=O)N3CCN(c4cccc(C(F)(F)F)c4)CC3)ccc2N1 : 1.05
C/C(COc1ccccc1)=N\NC(=O)c1nnn(-c2nonc2N)c1-c1ccc(C)cc1 : -1.04
CCCc1c(C)nc2scc(-c3ccc(Cl)cc3)n2c1=O : 3.02
CCn1c(SCC(=O)NNC(=O)c2ccc(OC)cc2)nnc1C(C)C : 1.41
COC(=O)CN(c1cccc(C(C)=O)c1)S(C)(=O)=O : -0.3
Cc1nc(C(F)(F)F)ccc1C(=O)N1CCC1(C)C(=O)NS(=O)(=O)c1ccc(F)cc1F (stereo not given) : 1.28
N#Cc1ccc(OCCN2C(=O)NC3(CCSC3)C2=O)cc1 (stereo not given) : 1.75
Cc1cccc(C(=O)NC2CCN(CC(=O)Nc3cccc(Cl)c3)CC2)c1 : 1.44
COc1ccccc1C(=O)C(O)c1ccccc1OC (stereo not given) : 4.06
O=C(CCCN1C(=O)C2C3C=CC(C3)C2C1=O)N1CCN(c2ccccc2)CC1 (stereo not given) : 6.38
